system.tested: UniProt P13995
Sequence (P13995 36-350): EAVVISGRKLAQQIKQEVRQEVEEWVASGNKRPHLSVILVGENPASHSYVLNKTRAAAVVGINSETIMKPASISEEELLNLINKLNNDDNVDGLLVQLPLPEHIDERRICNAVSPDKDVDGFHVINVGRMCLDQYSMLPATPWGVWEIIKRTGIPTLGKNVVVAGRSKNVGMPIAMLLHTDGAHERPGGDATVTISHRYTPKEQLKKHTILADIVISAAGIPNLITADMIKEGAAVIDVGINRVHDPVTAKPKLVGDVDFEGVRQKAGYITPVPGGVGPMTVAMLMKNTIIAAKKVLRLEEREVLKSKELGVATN
pIC50: −log10 of the molar value.
reported.property: pIC50

Guide cases for pIC50, answers given:
compound: CC(N)c1nc2c(c(=O)n(Cc3[nH]c4cccc(Cl)c4c3Cl)c(=O)n2C)n1C (stereo not shown)
reported.property: pIC50
experimental.value: 6.00 to 8.00

compound: Cc1c(Cn2c(=O)c3c(nc(Nc4ccncc4)n3C)n(C)c2=O)[nH]c2ccccc12
reported.property: pIC50
experimental.value: 6.00 to 8.00

compound: Cn1c(N[C@H]2CCC(=O)NC2)nc2c1c(=O)n(Cc1ccc(Cl)c(Cl)c1)c(=O)n2C (single isomer, unassigned) [Example 83]
reported.property: pIC50
experimental.value: 6.00 to 8.00

Incoming: State the recorded pIC50 for this entry: `Cc1cccc2cc(Cn3c(=O)c4c(nc(Nc5ccncc5)n4C)n(C)c3=O)[nH]c12`
Outgoing: 6.00 to 8.00

Incoming: State the recorded pIC50 for this entry: `Cn1c(Nc2ccncc2)nc2c1c(=O)n(Cc1cc3c(C4CC4)cccc3[nH]1)c(=O)n2C`
Outgoing: 6.00 to 8.00

Incoming: State the recorded pIC50 for this entry: Cn1c(C(N)CC2CC2)nc2c1c(=O)n(Cc1cc3c(Cl)cccc3[nH]1)c(=O)n2C (stereo not shown)
Outgoing: 6.00 to 8.00

Incoming: State the recorded pIC50 for this entry: `Cn1c(Nc2ccncc2)nc2c1c(=O)n(Cc1ccc3c(Cl)cccc3c1)c(=O)n2C`
Outgoing: 6.00 to 8.00

* * *

system.tested: Human MTHFD2 (Homo sapiens)
Construct: residues 36-350 in Uniport ID P13995; His6 (N); made in house; host or cells: E. coli
measurement.description: MTHFD2 Activity Assay (dehydrogenase activity, diaphorase/resazurin coupled fluorescence)
Assay type: biochemical
condition.context: inhibitory activity (IC50 and/or binding constant); 0.2 nM MTHFD2, 11 concentrations
pIC50: −log10 of the molar value.
Measured pIC50 of individual entries

compound: Cn1c(NCCO)nc2c1c(=O)n(Cc1ccc(Cl)c(Cl)c1)c(=O)n2C
pIC50: 5.30 to 6.00
--
compound: COc1ccc2[nH]c(Cn3c(=O)c4c(nc(Nc5ccncc5)n4C)n(C)c3=O)cc2c1
pIC50: 6.00 to 8.00
--
compound: Cn1c(Nc2cnccn2)nc2c1c(=O)n(Cc1cc3c(Cl)cccc3[nH]1)c(=O)n2C
pIC50: 6.00 to 8.00
--
compound: Cc1cc(Nc2nc3c(c(=O)n(Cc4cc5c(Cl)cccc5[nH]4)c(=O)n3C)n2C)nc(CCC(N)=O)n1
pIC50: 6.00 to 8.00
--
compound: Cn1cnc2c1c(=O)n(Cc1cc3cc(C#N)ccc3[nH]1)c(=O)n2C
pIC50: 5.30 to 6.00

Incoming: Please provide the recorded pIC50 for Cn1c(C(N)C2CC2)nc2c1c(=O)n(Cc1cc3c(Cl)cccc3[nH]1)c(=O)n2C (centres unmarked) , tested on Human MTHFD2 (Homo sapiens).
Outgoing: 6.00 to 8.00

Incoming: Please provide the recorded pIC50 for `Cn1c(Nc2ccc3c(c2)NC(=O)CCC3)nc2c1c(=O)n(Cc1ccc(Cl)c(Cl)c1)c(=O)n2C` , tested on Human MTHFD2 (Homo sapiens).
Outgoing: 6.00 to 8.00

Incoming: Please provide the recorded pIC50 for `Cn1c(N[C@H]2C[C@@H](CO)C2)nc2c1c(=O)n(Cc1ccc(Cl)c(Cl)c1)c(=O)n2C` , tested on Human MTHFD2 (Homo sapiens).
Outgoing: 6.00 to 8.00
